Data credit: paper PMC9692855

Known inhibition at 100 µM of a selection of compounds
- target: human plasma BuChE (E.C. 3.1.1.8) (Homo sapiens)
- Sequence (P06276 29-602): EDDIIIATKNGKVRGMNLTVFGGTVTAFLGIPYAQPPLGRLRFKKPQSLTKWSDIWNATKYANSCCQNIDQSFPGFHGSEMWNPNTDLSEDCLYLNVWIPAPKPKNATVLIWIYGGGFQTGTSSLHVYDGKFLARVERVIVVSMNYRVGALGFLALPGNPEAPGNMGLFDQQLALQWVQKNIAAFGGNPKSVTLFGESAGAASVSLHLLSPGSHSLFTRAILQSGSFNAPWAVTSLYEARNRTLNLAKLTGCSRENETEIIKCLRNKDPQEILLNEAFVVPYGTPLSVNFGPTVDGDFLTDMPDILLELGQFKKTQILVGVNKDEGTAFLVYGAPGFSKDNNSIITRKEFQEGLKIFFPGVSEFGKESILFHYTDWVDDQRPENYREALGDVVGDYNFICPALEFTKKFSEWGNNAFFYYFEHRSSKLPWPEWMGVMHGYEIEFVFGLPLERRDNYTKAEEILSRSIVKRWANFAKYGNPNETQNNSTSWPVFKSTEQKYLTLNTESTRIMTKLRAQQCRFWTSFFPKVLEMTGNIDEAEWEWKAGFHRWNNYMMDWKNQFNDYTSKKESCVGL
- assayNotes: biochemical
- cond: read-out: % Inhibition hBuChE ± SEM
measuredQuantity: inhibition at 100 µM (%)

* COc1cc2c(cc1O)CN1CCC23C=CC(OC(C)=O)CC13 (stereo not shown) [3-O-acetyl-8-O-demethylmaritidine (12), 3-O-acetyl-8-O-demethylmaritidine] | 10.3
* COc1ccc2c3c1O[C@H]1C[C@@H](O)C=C[C@@]31CCN(C)C2 [galanthamine, reference compound] | 68.2
* COc1cc2c(cc1O)C(=O)N1CCC3=C[C@H](O)[C@@H](OC(C)=O)[C@@H]2[C@@H]31 [sternbergine (17), sternbergine] | 23.5
* CN1CC[C@@H]2C[C@H](O)[C@@H]3OC(=O)c4cc5c(cc4[C@H]3[C@@H]21)OCO5 [clivonine (6), clivonine] | 28.2
